The measurements presented in this section are drawn from patent US20080045499A1.

target: Presenilin-1-comprised γ-secretase (Homo sapiens); construct: expressed in transfected cells; host or cells: mouse fibroblasts derived from PS1/PS2 double knockout cells, pCF vector; test: Aβ1-x ELISA in Presenilin-1 transfected PS1/PS2 double knockout mouse fibroblasts; type: cell-based; settings: column A; Aβ1-x, Presenilin-1 transfected cells, overnight; read-out: PS1 EC50 (nM) A
TEST READOUT: EC50 (nM)

Check out these entries, answers already filled in.
C[C@H](NC(=O)[C@@H](O)c1cc(F)cc(F)c1)C(=O)Nc1cc(C(C)(C)c2ccccc2)n[nH]1    8.2
C/C(=C\c1ccccc1)CN([C@@H]1CCNC1=O)S(=O)(=O)c1ccc(Cl)cc1    2170

(I) C[C@H](NC(=O)[C@@H](O)c1cc(F)cc(F)c1)C(=O)N[C@H](C(=O)NCC1CN(c2ccccc2)CCO1)c1ccccc1 (stereo partly shown)
(II) CCCCN([C@@H]1CCCCNC1=O)S(=O)(=O)c1ccc(Cl)cc1
Task for the reader: decide whether I or II has the larger EC50. # answer = label of selected item
II
